Hello, the source for this data is patent US20200055939A1, in case you need it.

Biological target: T1, MICA008.His (human MICA*008 alpha 3 domain, His tagged) (human)
T1 construct: Also used for FPOP (expressed in CHO); also called huMICA*008 alpha 3-his; MICA*008 a3
T1 chain: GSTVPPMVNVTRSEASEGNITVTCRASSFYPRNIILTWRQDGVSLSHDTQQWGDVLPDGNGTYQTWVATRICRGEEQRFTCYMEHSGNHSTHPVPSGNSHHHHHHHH
Test: SPR, antibody captured;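 note: SPR with antibody held by surface-bound anti-Fc while His-tagged alpha three domains flow over, Kd derived by fitting a one-to-one binding model to sensograms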
// Kd lookup, one value per entry
Write it as a number; the unit nM goes unstated.

binder 2E5.2.3 (antibody, V domains shown, Mouse hybridoma antibody; constant regions differ by assay) VH: QGQMQQSGAELVKPGASVKLSCKTSGFTFSDNYISWLKQKPGQSLEWIAWIYAGTGGTSYNQKFTAKAQLTVDTSSSTAYMQFSSLTTEDSAIYYCARHDYYGTSGAWFAYWGQGTLVTVSA VL: DVLMTQTPLSLPVSLGDQASLSCRSSQNIVHINGNTYLEWYLQKPGQSPKLLIYKVSNRFSGVPDRFSGSGSGTDFTLKISRVEAEDLGVYYCFQGSHVPWTFGGGTKVEIK , Kd observed: 1.8

GET /value?item= 6F8.7 (antibody, V domains shown, Mouse hybridoma antibody; constant regions differ by assay) VH: DVQLQGSGPGLVKPSQSLSLTCSVTGYSITNDYYWNWIRQFPGNKLEWMGFISFGGSNNYNPSLKNRISITRDTSKNQFFLKLSSVTTEDTATYYCARYDGRGAWFAYWAQGTLVTVSA VL: DIQMTQSPASLSASVGETVTITCRASGNIHNYLAWYQQKQGKSPQLLVYDAITLADGVPSRFSGSGSGTQYSLKINSLQPEDFGNYYCQHFWSFPLTFGAGTKVEIK &field=Kd returns 8.4

Looking up 6E1.1.12 (antibody, V domains shown, Mouse hybridoma antibody; constant regions differ by assay) VH: QGQMQQSGAELVKPGASVKLSCKTSGFTFSDNYISWLKQKPGQSLEWIAWIYAGTGGSSYNQKFRDKAQLTVDTSSRTAYMQLSSLTTEDSAIYYCARHDYYGTSGAWFAYWGRGTLVTVSA VL: DVLMTQTPLSLPVSLGDQASISCRSSQHIVHSNENTYLEWYLQKPGQSPKLLIYKVSNRFSGVPDRFSGSGSGTDFTLKISRVEAEDLGVYYCFQGSHVPWTFGGGTKVEIK , I found its Kd recorded as 6.8

Per the record, 3E11 (antibody, V domains shown, Mouse hybridoma antibody; constant regions differ by assay) VH: EIQLQQSGPELVKPGASVKVSCTASGYAFTKYNIYWVKQSHGKSLEWIGYIDPYTGGTISNQKFTGRATLTVDKSSSTAYLHLNSLTSEDSAVYYCARPGSYWYFGVWGAGTTVTVSS VL: DILMTQTPLSLPVSLGDQASISCRSSQSIVYTNGNTNLEWYLQKPGQSPKLLIYKVSNRFSGVPDRFSGSGSGTDFTLKISRVEAEDLGVYYCFQASYVPFTFGSGTKVEIK has Kd of 2.5

Measured Kd of 32D2 (antibody, V domains shown, Mouse hybridoma antibody; constant regions differ by assay) VH: DVHLVESGGGLVQPGGSRKLSCAASGFTFNTFGMNWVRQAPEKGLEWVAYINSGSNTIYYADTVKGRFTISRDNPKNTLFLQMTSLRSEDTAMYYCTRWEPVTGGFSYWGQGTLVTVSA VL: QIVLTQSPAFKSSSLGERVTMTCTASSSISSSYLHWYQQKPGSSPKLWIYTTSNLASGVPARFSGSGSGTSYSLTISTMEAEDAATYYCHQHHRSPFTFGSGTKVEIK : 1.94
